Test system: Rattus norvegicus
Assay: Ulcerogenic activity in fasted Wistar albino rat assessed as ulcer index at 100 mg/kg, po after 5 hrs
Format: toxicity, organism-based
Parameters: dose 100 mg/kg, route oral
Settings: in vivo
Measured UI of individual entries

The following compounds have reported results that may help.
compound: Cc1cccc(Nc2ccccc2C(=O)Oc2ccc(/N=C/c3ccc(N(C)C)cc3)cc2)c1C
target of assay: Rattus norvegicus
reading: 0

compound: Cc1cccc(Nc2ccccc2C(=O)Oc2ccc(/N=C/c3ccc([N+](=O)[O-])cc3)cc2)c1C
target of assay: Rattus norvegicus
reading: 0

compound: COc1ccc(/C=N/c2ccc(OC(=O)C(C)c3ccc(CC(C)C)cc3)cc2)cc1 (centres undefined)
target of assay: Rattus norvegicus
reading: 0

compound: COc1ccc(/C=N/c2ccc(OC(=O)c3ccccc3Nc3cccc(C)c3C)cc2)cc1
target of assay: Rattus norvegicus
reading: 0

compound: CC(C)Cc1ccc(C(C)C(=O)Oc2ccc(/N=C/c3ccc(N(C)C)cc3)cc2)cc1 (centres undefined)
target of assay: Rattus norvegicus
reading: 0

q: Give UI (Rattus norvegicus) of the following compound: CC(C)Cc1ccc(C(C)C(=O)Oc2ccc(/N=C/c3ccc([N+](=O)[O-])cc3)cc2)cc1 (centres undefined)
a: 0

q: Give UI (Rattus norvegicus) of the following compound: CC(C)Cc1ccc(C(C)C(=O)O)cc1 (racemic)
a: 4.03

q: Give UI (Rattus norvegicus) of the following compound: "Cc1cccc(Nc2ccccc2C(=O)Oc2ccc(/N=C/c3ccc(Br)cc3)cc2)c1C"
a: 0

q: Give UI (Rattus norvegicus) of the following compound: CC(C)Cc1ccc(C(C)C(=O)Oc2ccc(/N=C/c3ccc(Br)cc3)cc2)cc1 (centres undefined)
a: 0

The measurements presented in this section are drawn from ChEMBL document CHEMBL1938263.
